# ASSAY_OVERVIEW: qHTS for Inhibitors of the Aldehyde Dehydrogenase Family (ALDH1A2, ALDH1A3, ALDH2, ALDH3A1) (AID 2061307); note: nearly all actives have a fitted effect of over 50% in size
# RECORDED_CONDITIONS: ALDH inhibition qHTS; series mostly up to 50.3 µM
Results filed as inconclusive are left out. Active and inactive are the calls of the source. Calls come from the whole dose curve; as a rule, active = well fitted inhibition curve with a large enough effect; inconclusive = small, poorly fitted or top-dose-only effect; inactive = no such curve, though single readings can be large or run the other way.
Outcomes: active, inactive

In [3]: df
Out[3]:
                                   molecule     label
0  Cc1ccc(Cl)cc1NS(=O)(=O)c1cc2c(cc1F)NC(=O)CC2    active
1     Cc1cc(-c2nnc3n2CCCCC3)c(C)n1-c1ccccn1  inactive
2  O=C(O)c1cccc(-n2[nH]c(-c3ccccc3)cc2=O)c1    active
3  COc1ccc(C2Nc3ccccc3C(=O)N2Cc2ccccc2)cc1COc1ccc(C(N)=O)cc1 (stereo unspecified)    active
4  CN1CCc2sc(NC(=O)Cc3ccccc3)c(C(=O)Nc3ccc(Cl)cc3)c2C1  inactive
5                 CN(C)C(=O)/N=N/C(=O)N(C)C  inactive

* * *

# ASSAY_OVERVIEW: BET inhibitor-based combinations targeting novel dependencies in MECOM-rearranged (r) AML: UCSD-AML1 cell line (AID 2202235); note: nearly all actives have a fitted effect of over 40% in size; note: potency is the fitted concentration of half-maximal effect
# RECORDED_CONDITIONS: UCSD-AML1 AML cells viability, CellTiter-Glo, 48 h; series mostly up to 46 µM
Results filed as inconclusive are left out. Activity calls are given as the source filed them. Calls come from the whole dose curve; as a rule, active = well fitted inhibition curve with a large enough effect; inconclusive = small, poorly fitted or top-dose-only effect; inactive = no such curve, though single readings can be large or run the other way.
QUANTITY_KIND: Potency

In [3]: df
Out[3]:
                                  structure  quantity_kind           observed
0  COc1cc2c(Oc3ccc(-c4cnc(Nc5ccc(F)cc5)n(C)c4=O)cc3F)ccnc2cc1OCCCN1CCOCC1        Potency   11.8 µM (active)
1  N#Cc1c(O)c2c(-c3ccc(-c4ccccc4O)cc3)csc2[nH]c1=O        Potency           inactive
2  CCN1CCN(Cc2ccc(Nc3ncc(F)c(-c4cc(F)c5nc(C)n(C(C)C)c5c4)n3)nc2)CC1        Potency  0.662 µM (active)
3  O=C(Nc1cc(Cl)cc2c1[nH]c1cnccc12)c1cccnc1        Potency           inactive
4  CCCS(=O)(=O)Nc1ccc(F)c(C(=O)c2c[nH]c3ncc(Cl)cc23)c1F        Potency           inactive

* * *

# ASSAY_OVERVIEW: BET inhibitor-based combinations targeting novel dependencies in MECOM-rearranged (r) AML: AML-194 cell line (AID 2202237; note: nearly all actives have a fitted effect of over 40% in size)
# RECORDED_CONDITIONS: AML-194 (MECOM-r AML) viability, CellTiter-Glo, 48 h; series mostly up to 46 µM
Results filed as inconclusive are left out. Calls of active or inactive are those of the source. Calls follow the shape of the dose curve; as a rule, active = well fitted inhibition curve with a large enough effect; inconclusive = small, poorly fitted or top-dose-only effect; inactive = flat fitted curve, though single readings scatter.
Outcomes: active, inactive

In [3]: df
Out[3]:
                                   molecule     label
0  CC[C@@H]1C(=O)N(C)c2cnc(Nc3ccc(C(=O)NC4CCC(N5CCN(CC6CC6)CC5)CC4)cc3OC)nc2N1C(C)C (stereo not given in full)    active
1  CC(C)(C)c1cc(NC(=O)Nc2ccc(-c3cn4c(n3)sc3cc(OCCN5CCOCC5)ccc34)cc2)no1    active
2   O=c1c(O)c(-c2ccc(O)cc2)oc2cc(O)cc(O)c12  inactive
3  O=C1NC(=O)C(c2cnc3ccccn23)=C1c1cn2c3c(cccc13)CN(C(=O)N1CCOCC1)CC2    active
4  COc1ccc2nc3cc(Cl)ccc3c(Nc3cc(CN4CCCC4)c(O)c(CN4CCCC4)c3)c2n1    active
5  Clc1ccc(C(c2ccccc2Cl)C(Cl)Cl)cc1 (stereo not given)  inactive
6       Cc1cc2c(s1)Nc1ccccc1N=C2N1CCN(C)CC1  inactive
7  Cn1ncc(Cl)c1-c1cc(C(=O)N[C@H](CN)Cc2cccc(F)c2)sc1Cl    active
8         OCc1ccc(-c2ccc(-c3ccc(CO)s3)o2)s1    active
9  C=C1C[C@@]2(O)O[C@@]3(C[C@H]2C(C)C)[C@@H](C)CC[C@@H]13  inactive

* * *

# ASSAY_OVERVIEW: BET inhibitor-based combinations targeting novel dependencies in MECOM-rearranged (r) AML: MV-4-11 cell line (AID 2202233); note: nearly all actives have a fitted effect of over 45% in size
# RECORDED_CONDITIONS: MV-4-11 AML viability, CellTiter-Glo luminescence, 48 h; series mostly up to 46 µM
Results filed as inconclusive are left out. Calls of active or inactive are those of the source. Calls come from the whole dose curve; as a rule, active = well fitted inhibition curve with a large enough effect; inconclusive = small, poorly fitted or top-dose-only effect; inactive = no such curve, though single readings can be large or run the other way.
Outcomes: active, inactive

                                    compound     label
 0  C[C@@H](c1ncncc1F)[C@](O)(Cn1cncn1)c1ccc(F)cc1F  inactive
 1  CC(C)(C)C(=O)CN1C(=O)[C@H](NC(=O)Nc2cccc(C(=O)O)c2)CN(C2CCCCC2)c2ccccc21  inactive
 2  Cc1c(NC(=O)c2cc3c(s2)CCCC3)cccc1-c1cn(C)c(=O)c(Nc2ccc(C3C(=O)N(C)CCN3C)cc2)n1 (stereo not drawn)    active
 3          COc1ccc2cc([C@H](C)C(=O)O)ccc2c1  inactive
 4  CC(C)N(C[C@H]1O[C@@H](n2cnc3c(N)ncnc32)[C@H](O)[C@@H]1O)C1CC(CCc2nc3ccc(C(C)(C)C)cc3[nH]2)C1 (stereo partly drawn)    active
 5  CC(C)c1cc(-c2n[nH]c(=O)n2-c2ccc3c(ccn3C)c2)c(O)cc1O    active
 6     CC(=O)NC(CS)C(=O)O (stereo not drawn)  inactive
 7  COC(=O)Nc1cc(Nc2cc(NC3CC3)c3ncc(C#N)n3n2)c(Cl)c(N2CCN(C)CC2)c1    active
 8  NC(=O)c1c(OCc2c(F)cc(Br)cc2F)nsc1NC(=O)NCCCCN1CCCC1    active
 9   O=C(O)CCc1ccc(NCc2cccc(Oc3ccccc3)c2)cc1  inactive
10  CC1=C(C(=O)Nc2cc3cn[nH]c3cc2F)C(c2ccc(Cl)cc2F)N=C(c2ccnc(Cl)c2)N1 (stereo not drawn)    active
11                            NC(=O)c1cccnc1  inactive
12  Cc1ccc(S(=O)(=O)OCC(=O)Nc2ccc(C(=O)O)c(O)c2)cc1  inactive
13  CC(C)(O)CNc1nc(Nc2ccnc(C(F)(F)F)c2)nc(-c2cccc(C(F)(F)F)n2)n1    active
14  O=c1c(-c2ccc(O)cc2)coc2cc(O[C@@H]3O[C@H](CO)[C@@H](O)[C@H](O)[C@H]3O)ccc12    active
15  O=C(Nc1ccc([N+](=O)[O-])cc1Cl)c1cc(Cl)ccc1O    active
16  CCN1CCCC1CNC(=O)c1cc(S(=O)(=O)CC)c(N)cc1OC (stereo not drawn)  inactive
17  Nc1nc2c(c(=O)[nH]1)N(C=O)[C@H](CNc1ccc(C(=O)N[C@@H](CCC(=O)O)C(=O)O)cc1)CN2  inactive
18  Cc1ccc2nc(NC(=O)CSc3nc4c(c(=O)n3-c3ccccc3)SCC4)sc2c1  inactive
19  CC(=O)[C@]1(O)Cc2c(O)c3c(c(O)c2[C@@H](O[C@H]2C[C@H](N)[C@H](O)[C@H](C)O2)C1)C(=O)c1ccccc1C3=O    active
20  COCCCN1CCC(NC(=O)c2cc(Cl)c(N)c3c2OCC3)CC1  inactive
21     NC(=O)c1ccccc1Nc1ccnc(Nc2cccc(O)c2)n1    active
22  CC(C)C[C@H](NC(=O)[C@H](CCc1ccccc1)NC(=O)CN1CCOCC1)C(=O)N[C@@H](Cc1ccccc1)C(=O)N[C@@H](CC(C)C)C(=O)[C@@]1(C)CO1    active
23  c1cc(-c2cnn3cc(-c4ccc(N5CCNCC5)cc4)cnc23)c2cccnc2c1    active
24  Nc1ncnc2c1c(-c1cnc3[nH]ccc3c1)nn2C1CCCC1    active
25  C[C@@H](CN1CC(=O)NC(=O)C1)N1CC(=O)NC(=O)C1    active
26  Nc1nc(=O)n([C@H]2C[C@H](O)[C@@H](CO)O2)cc1F    active
27  CNC(=O)c1cc(Oc2ccc(NC(=O)Nc3ccc(Cl)c(C(F)(F)F)c3)cc2)ccn1    active
28     N#CNC(=NCCCCCCOc1ccc(Cl)cc1)Nc1ccncc1    active
29  Nc1nc(N)c2nc(CNc3ccc(C(=O)NC(CCC(=O)O)C(=O)O)cc3)cnc2n1 (stereo not drawn)  inactive
30  Nc1cccc2c1C(=O)N(C1CCC(=O)NC1=O)C2=O (stereo not drawn)    active
31  O=C(COCC(=O)N1CCN(C(c2ccccc2)c2ccccc2)CC1)Nc1ccc(Cl)cc1C(=O)O  inactive
32  CCCCN(CCCC)CC(O)c1cc(Cl)cc2c1-c1ccc(Cl)cc1/C2=C/c1ccc(Cl)cc1 (stereo not drawn)  inactive
33  O=c1ccn([C@@H]2O[C@H](CO)[C@H](O)[C@@H]2F)c(=O)[nH]1  inactive
34  C[C@H]1O[C@@H](n2cc(F)c(=O)[nH]c2=O)[C@H](O)[C@@H]1O    active
35  COc1cc(Nc2ncc(F)c(Nc3ccc4c(n3)NC(=O)C(C)(C)O4)n2)cc(OC)c1OC    active
36  COc1cc(C(=O)NC2CCN(C)CC2)ccc1Nc1ncc2c(n1)N(C1CCCC1)CCC(=O)N2C(C)C    active
37  CC1(C)CCC(CN2CCN(c3ccc(C(=O)NS(=O)(=O)c4ccc(NCC5CCOCC5)c([N+](=O)[O-])c4)c(Oc4cnc5[nH]ccc5c4)c3)CC2)=C(c2ccc(Cl)cc2)C1    active

From: PubChem BioAssay (NCATS)
